# tested.on: T1, RBFOX1 RRM RbFoxmut (Fox-RRM*) (Homo sapiens, UniProt Q9NWB1 109-208, R118D;E147R;N151S;E152T)
# T1 sequence: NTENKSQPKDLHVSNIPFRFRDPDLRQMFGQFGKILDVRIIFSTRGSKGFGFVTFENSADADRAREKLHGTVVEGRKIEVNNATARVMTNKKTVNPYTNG
# assay.summary: EMSA; HiTS-Eq, 1 nM pool, 10 min; buffer printed only for the single-RNA assays: 10 mM Tris pH 7.5, 150 mM NaCl, 3.4 mM EDTA, 0.001% NP-40, 30 C
# test.conditions: tags: His6 N-terminal (pET28a); label: 5' 32P
The full ranking holds about 16,000 sequences; the median of “ka relative to ugcaugu” is about 0.096, and the highest 2% start at about 0.35. This excerpt belongs to a sample that is enriched for the highest values.
binding signal listing for selected binders.

Sample records with binding signal:
1) GGGAAUG (DNA:RNA) RNA: GGGAGACCGGAAUUCAGAUUGUCCGGGAAUGUUAAAUCCCGUCGUAGCCACCA DNA 1: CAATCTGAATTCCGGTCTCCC DNA 2: TGGTGGCTACGACGGGATT: 1.15 KA relative to UGCAUGU
2) AUAUGCA (DNA:RNA) RNA: GGGAGACCGGAAUUCAGAUUGUCCAUAUGCAUUAAAUCCCGUCGUAGCCACCA DNA 1: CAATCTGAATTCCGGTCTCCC DNA 2: TGGTGGCTACGACGGGATT: 0.208 KA relative to UGCAUGU

q: What value of measured binding signal is listed for AAGAGAA (DNA:RNA) RNA: GGGAGACCGGAAUUCAGAUUGUCCAAGAGAAUUAAAUCCCGUCGUAGCCACCA DNA 1: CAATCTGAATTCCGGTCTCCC DNA 2: TGGTGGCTACGACGGGATT ?
a: 0.115 KA relative to UGCAUGU

q: Also GUUAAUG (DNA:RNA) RNA: GGGAGACCGGAAUUCAGAUUGUCCGUUAAUGUUAAAUCCCGUCGUAGCCACCA DNA 1: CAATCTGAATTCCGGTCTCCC DNA 2: TGGTGGCTACGACGGGATT , if possible.
a: 0.138 KA relative to UGCAUGU

q: Also GGCAUUG (DNA:RNA) RNA: GGGAGACCGGAAUUCAGAUUGUCCGGCAUUGUUAAAUCCCGUCGUAGCCACCA DNA 1: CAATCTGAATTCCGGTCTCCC DNA 2: TGGTGGCTACGACGGGATT , if possible.
a: 0.394 KA relative to UGCAUGU

q: Also AGAUUGU (DNA:RNA) RNA: GGGAGACCGGAAUUCAGAUUGUCCAGAUUGUUUAAAUCCCGUCGUAGCCACCA DNA 1: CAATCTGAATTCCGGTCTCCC DNA 2: TGGTGGCTACGACGGGATT , if possible.
a: 0.222 KA relative to UGCAUGU

q: Also GGCACCG (DNA:RNA) RNA: GGGAGACCGGAAUUCAGAUUGUCCGGCACCGUUAAAUCCCGUCGUAGCCACCA DNA 1: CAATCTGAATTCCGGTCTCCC DNA 2: TGGTGGCTACGACGGGATT , if possible.
a: 0.132 KA relative to UGCAUGU

q: Also AAGAUUG (DNA:RNA) RNA: GGGAGACCGGAAUUCAGAUUGUCCAAGAUUGUUAAAUCCCGUCGUAGCCACCA DNA 1: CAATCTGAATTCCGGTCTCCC DNA 2: TGGTGGCTACGACGGGATT , if possible.
a: 0.223 KA relative to UGCAUGU

q: Also GGCAUUC (DNA:RNA) RNA: GGGAGACCGGAAUUCAGAUUGUCCGGCAUUCUUAAAUCCCGUCGUAGCCACCA DNA 1: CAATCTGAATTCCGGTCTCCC DNA 2: TGGTGGCTACGACGGGATT , if possible.
a: 0.119 KA relative to UGCAUGU

The measurements presented in this section are drawn from paper PMC9911399.
